Where do these numbers come from? They come from patent US20170369542A1.

Exercise: for every item that follows, state its recorded Kd.
- Subject Of Test: T1, C-terminal biotinylated human Hepcidin-25 (human, not fully specified; biotinylated via a Lysine residue coupled to the C-terminus via a Mini-PEG linker)
- T1 construct: Bought from Bachem AG; Captured on plates via Neutravidin; also called C-terminal biotinylated hepcidin; C-terminal biotinylated hHepcidin
- T1 peptide: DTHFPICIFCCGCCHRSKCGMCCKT
- Method Description: direct ELISA, biotinylated hepcidin captured via Neutravidin, mutein titrated
Show the value, then the unit it is measured in.

// known answers, use as guide
{"Binder": "lipocalin mutein of SEQ ID NO: 7 (designed binder, also called Lcn2 mutein) QDSTSDLIPAPPLSKVPLQQNFQDNQFHGKWYVVGLAGNRVLREDKDPQKMFATIYELKEDKSYNVTGVDFRTKKCLYSIGTFVPGSQPGEFTLGVIKSQPGWTSYLVRVVSTNYNQHAMVFFKTVWQNREVFWITLYGRTKELTSELKENFIRFSKSLGLPENHIVFPVPIDQCIDG", "Kd": "0.48 nM"}
{"Binder": "lipocalin mutein of SEQ ID NO: 9 (designed binder, also called Lcn2 mutein) QDSTSDLIPAPPLSKVPLQQNFQDNQFHGKWYVVGLAGNEVLREDKDPMKMWATIYELKEDKSYNVTIVMSLAKKCEYLFQTFVPGSQPGEFTLGDIKSSPGRTSGLVRVVSTNYNQHAMVFFKVVWQNREVFWITLYGRTKELTSGLKENFIRFSKSLGLPENHIVFPVPIDQCIDG", "Kd": "0.75 nM"}
{"Binder": "lipocalin mutein of SEQ ID NO: 4 (designed binder, also called Lcn2 mutein) QDSTSDLIPAPPLSKVPLQQNFQDNQFHGKWYVVGVAGNEMLREDKDPLKMLATIYELKEDKSYNVTRVMFEYKKCVYLIETFVPGSQPGEFTLGTIKSVPGLTSGLVRVVSTNYNQHAMVFFKRVWQNREVFWITLYGRTKELTSELKENFIRFSKSLGLPENHIVFPVPIDQCIDG", "Kd": "1.39 nM"}
{"Binder": "lipocalin mutein of SEQ ID NO: 11 (designed binder, also called Lcn2 mutein) QDSTSDLIPAPPLSKVPLQQNFQDNQFHGKWYVVGLAGNEILREDKDPMKMWATIYELKEDKSYNVTIVMFLAKKCEYLFQTFVPGSQPGEFTLGDIKSSPGRTSGLVRVVSTNYNQHAMVFFKVVWQNREVFWITLYGRTKELTSGLKENFIRFSKSLGLPENHIVFPVPIDQCIDG", "Kd": "0.64 nM"}
{"Binder": "lipocalin mutein of SEQ ID NO: 1, linked to albumine-binding domain (ABD) (SEQ ID NO: 15) (designed binder, also called ABD-fusion protein) QDSTSDLIPAPPLSKVPLQQNFQDNQFHGKWYVVGLAGNEVLREDKDPMKMWATIYELEEDKSYNVTIVMFLAKKCEYLFQTFVPGSQPGEFTLGDIKSSPGRTSGLVRVVSTNYNQHAMVFFKVVWQNREVFWITLYGRTKELTSELKENFIRFSKSLGLPENHIVFPVPIDQCIDGSAGAVDANSLAEAKVLANRELDKYGVSDYYKNLINNAKTVEGVKALIDEILAALPSAWSHPQFEK", "Kd": "0.48 nM"}

Q: Indicate the recorded Kd value for this binder: lipocalin mutein of SEQ ID NO: 12 (designed binder, also called Lcn2 mutein) QDSTSDLIPAPPLSKVPLQQNFQDNQFHGKWYVVGLAGNEVLREDKDPMKMWATIYELKEDKSYNVTIVMFLAEECEYLFQTFVPGSQPGEFTLGDIKSSPGRTSGLVRVVSTNYNQHAMVFFKVVWQNREVFWITLYGRTKELTSELKKNFIRFSKSLGLPENHIVFPVPIDQCIDG
Ans: 0.64 nM
